tgt: biotinylated labeled human GPC3 protein (produced in-house) (human, UniProt P51654 25-559, limits assumed, biotinylated (Dojindo, Cat. No. LK03); sites not stated)
test.summary: ELISA, biotinylated human GPC3 protein
observed.property: OD450 at 66.66 nM (OD450)
// units = OD450; emit number, no label

Worked cases, answers included:
| binder | unit.of.measure | OD450 at 66.66 nM |
| --- | --- | --- |
| hAb005LH1L1a (antibody, human IgG1, V domains shown, Humanized F3.54.12; VH H1 + VL L1a; expressed as human IgG1) VH: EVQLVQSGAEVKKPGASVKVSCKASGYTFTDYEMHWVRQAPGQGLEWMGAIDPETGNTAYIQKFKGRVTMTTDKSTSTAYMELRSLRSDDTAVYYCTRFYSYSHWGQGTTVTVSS VL: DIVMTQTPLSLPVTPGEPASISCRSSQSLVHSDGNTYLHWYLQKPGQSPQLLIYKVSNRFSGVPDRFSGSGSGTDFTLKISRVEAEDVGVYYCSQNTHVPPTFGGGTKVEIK | OD450 | 0.558 |
| hAb001H1aL1b (antibody, human IgG1, V domains shown, Humanized F2.169.2; VH H1a + VL L1b; expressed as human IgG1) VH: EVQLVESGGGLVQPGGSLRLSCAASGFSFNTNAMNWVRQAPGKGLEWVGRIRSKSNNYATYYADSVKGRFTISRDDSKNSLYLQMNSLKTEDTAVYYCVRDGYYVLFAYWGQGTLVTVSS VL: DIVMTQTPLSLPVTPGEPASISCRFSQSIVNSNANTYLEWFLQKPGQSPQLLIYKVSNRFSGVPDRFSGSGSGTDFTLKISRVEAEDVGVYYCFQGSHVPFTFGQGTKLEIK | OD450 | 2.76 |
| hAb006LH1L1 (antibody, human IgG1, V domains shown, Humanized F3.38.7; VH H1 + VL L1; expressed as human IgG1) VH: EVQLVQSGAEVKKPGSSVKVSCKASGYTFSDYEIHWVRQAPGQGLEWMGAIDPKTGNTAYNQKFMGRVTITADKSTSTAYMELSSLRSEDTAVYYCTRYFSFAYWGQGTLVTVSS VL: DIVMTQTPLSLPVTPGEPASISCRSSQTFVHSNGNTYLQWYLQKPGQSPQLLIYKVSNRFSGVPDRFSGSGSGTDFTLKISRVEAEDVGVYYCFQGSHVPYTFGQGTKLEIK | OD450 | 2.43 |

As a next step, examine the binder that follows.
Just so you know, measured OD450 at 66.66 nM for hAb007LH1L1b (antibody, human IgG1, V domains shown, Humanized F3.81.19; VH H1 + VL L1b; expressed as human IgG1) VH: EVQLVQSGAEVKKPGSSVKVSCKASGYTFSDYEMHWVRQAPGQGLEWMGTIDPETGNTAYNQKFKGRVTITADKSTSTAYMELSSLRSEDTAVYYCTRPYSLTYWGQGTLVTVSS VL: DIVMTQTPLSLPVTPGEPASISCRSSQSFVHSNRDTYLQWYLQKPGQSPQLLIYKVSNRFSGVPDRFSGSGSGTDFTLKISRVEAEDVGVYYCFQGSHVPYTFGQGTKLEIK came out at 2.46
